test: Quantitation of compounds in rat knee joint extract after intra-articular injection (LC-MS/MS)
Assay type: in vivo
statedConditions: knee joint extract (whole joint, acetonitrile extract), other: intra-articular injection, 30 μL of 100 μM solution, T = 6 h, 30 μL of 100 μM intra-articular, read-out: Concentration observed in extract
measurementType: concentration at 6 h (ng/mL)
Answers are plain numbers, in ng/mL.

[in] What value of concentration at 6 h has been recorded for this entry: O=C(Nc1ccccc1S(=O)(=O)N1CCOCC1)c1ccc(F)cc1 [Compound 123]
[out] 0

----------
test: Quantitation of compounds in rat knee joint extract after intra-articular injection (LC-MS/MS)
Assay type: in vivo
statedConditions: knee joint extract (whole joint, acetonitrile extract), other: intra-articular injection, 30 μL of 100 μM solution, T = 1 h, 30 μL of 100 μM intra-articular, read-out: Concentration observed in extract
Assign labels as follows, please: class 1 for concentration at 1 h below 6 ng/mL; class 0 for concentration at 1 h equal to or exceeding 6 ng/mL.

Field: example entries. Status: answers known.
[[record]]
molecule = "O=C(Nc1ccccc1S(=O)(=O)N1CCOCC1)c1ccc(F)cc1 [Compound 123]"
classlabel = "class 0"

[[record]]
molecule = "CNS(=O)(=O)c1ccc(N2Cc3ccccc3C2=O)cc1 [Compound 27]"
classlabel = "class 0"

[[record]]
molecule = "CS(=O)(=O)c1ccc(C(=O)Nc2ccccc2S(=O)(=O)N2CCOCC2)cc1 [Compound 113]"
classlabel = "class 1"

[[record]]
molecule = "N#Cc1ccc(C(=O)Nc2ccccc2S(=O)(=O)N2CCOCC2)cc1 [Compound 62]"
classlabel = "class 0"

[[record]]
molecule = "COCCc1ccc(NC(=O)c2ccccc2NS(=O)(=O)c2ccccc2)cc1 [Compound 156]"
classlabel = "class 1"


[in] # TODO verify concentration at 1 h < 6 ng/mL strictly for this molecule: CN(Cc1cccc(NC(=O)c2ccccc2C(=O)O)c1)S(C)(=O)=O [Compound 73]
[out] class 0

[in] Now try COCCc1ccc(NC(=O)c2ccccc2C(=O)O)cc1 [Compound 21] .
[out] class 1

[in] Again, but for COCCc1ccc(NC(=O)c2ccccc2NS(C)(=O)=O)cc1 [Compound 117]
[out] class 1

[in] Lookup CC1COCCN1S(=O)(=O)c1ccccc1NC(=O)c1ccc(F)cc1 (stereo not drawn) [Compound 128]
[out] class 0

----------
test: Quantitation of compounds in rat knee joint extract after intra-articular injection (LC-MS/MS)
Format: in vivo
statedConditions: knee joint extract (whole joint, acetonitrile extract), other: intra-articular injection, 30 μL of 100 μM solution, T = 0.5 h, 30 μL of 100 μM intra-articular, read-out: Concentration observed in extract
Entries whose concentration at 0.5 h is below 30 ng/mL take yes (1); entries at or above 30 ng/mL take no (0).

[[record]]
compound = "COCCc1ccc(NC(=O)c2ccccc2NS(=O)(=O)c2ccccc2)cc1"
classlabel = "yes (1)"


[in] Lab note: concentration at 0.5 h threshold 30 ng/mL. Does this compound come in strictly under it? `COCCc1ccc(NC(=O)c2ccccc2NS(C)(=O)=O)cc1`
[out] no (0)

[in] Same for `CN(Cc1cccc(NC(=O)c2ccccc2C(=O)O)c1)S(C)(=O)=O`
[out] yes (1)

[in] What about `CNS(=O)(=O)c1ccc(N2Cc3ccccc3C2=O)cc1` ?
[out] no (0)

----------
test: Quantitation of compounds in rat knee joint extract after intra-articular injection (LC-MS/MS)
Format: in vivo
statedConditions: knee joint extract (whole joint, acetonitrile extract), other: intra-articular injection, 30 μL of 100 μM solution, T = 0 h, 30 μL of 100 μM intra-articular, read-out: Concentration observed in extract
I'd be grateful if you could share measured log10 concentration at 0 h for these entries.
Please interpret these as log10 of concentration at 0 h where concentration at 0 h is in ng/mL.

Here is how some molecules turned out for log10 concentration at 0 h.
[[record]]
molecule = "CS(=O)(=O)c1ccc(C(=O)Nc2ccccc2S(=O)(=O)N2CCOCC2)cc1"
endpointvalue = 2.75

[[record]]
molecule = "COCCc1ccc(NC(=O)c2ccccc2NS(=O)(=O)c2ccccc2)cc1"
endpointvalue = 2.04

[[record]]
molecule = "CN(Cc1cccc(NC(=O)c2ccccc2C(=O)O)c1)S(C)(=O)=O"
endpointvalue = 2.77

[[record]]
molecule = "COCCc1ccc(NC(=O)c2ccccc2NS(C)(=O)=O)cc1"
endpointvalue = 2.97

[[record]]
molecule = "O=C(Nc1ccccc1S(=O)(=O)N1CCOCC1)c1ccc(F)cc1"
endpointvalue = 3.65

[[record]]
molecule = "N#Cc1ccc(C(=O)Nc2ccccc2S(=O)(=O)N2CCOCC2)cc1"
endpointvalue = 2.61

[[record]]
molecule = "CNS(=O)(=O)c1ccc(N2Cc3ccccc3C2=O)cc1"
endpointvalue = 2.77

[[record]]
molecule = "COCCc1ccc(NC(=O)c2ccccc2C(=O)O)cc1"
endpointvalue = 2.64


Note: attention shifts to another entry.
[in] What does the record list as log10 concentration at 0 h for CC1COCCN1S(=O)(=O)c1ccccc1NC(=O)c1ccc(F)cc1 (stereo not drawn) ?
[out] 3.86

----------
test: Quantitation of compounds in rat knee joint extract after intra-articular injection (LC-MS/MS)
Type: in vivo
statedConditions: knee joint extract (whole joint, acetonitrile extract), other: intra-articular injection, 30 μL of 100 μM solution, T = 0.5 h, 30 μL of 100 μM intra-articular, read-out: Concentration observed in extract
measurementType: concentration at 0.5 h

Consider the reported concentration at 0.5 h for these compounds:
[[record]]
compound = "CS(=O)(=O)c1ccc(C(=O)Nc2ccccc2S(=O)(=O)N2CCOCC2)cc1"
measurementtype = "concentration at 0.5 h"
endpointvalue = "25.3 ng/mL"

[[record]]
compound = "N#Cc1ccc(C(=O)Nc2ccccc2S(=O)(=O)N2CCOCC2)cc1"
measurementtype = "concentration at 0.5 h"
endpointvalue = "109 ng/mL"

[[record]]
compound = "COCCc1ccc(NC(=O)c2ccccc2C(=O)O)cc1"
measurementtype = "concentration at 0.5 h"
endpointvalue = "9.1 ng/mL"

[[record]]
compound = "O=C(Nc1ccccc1S(=O)(=O)N1CCOCC1)c1ccc(F)cc1"
measurementtype = "concentration at 0.5 h"
endpointvalue = "1100 ng/mL"


[in] Requested field: concentration at 0.5 h. Item: CC1COCCN1S(=O)(=O)c1ccccc1NC(=O)c1ccc(F)cc1 (centres unmarked)
[out] 2940 ng/mL
